Test system: A549 (lung)
Protocol details: growth inhibition of human tumour cells, 72 h incubation
Format: cell-based
Experimental context: 72 hours of incubation
Below is a list of entries, each paired with its recorded pIC50 value.
The scale used: pIC50 is minus the common logarithm of the concentration in molar units.

// worked examples, pIC50 included
CCCCCC=CCC=CCC=CCC=CCCC(O)C(=O)OCC(COC(=O)C(O)CCC=CCC=CCC=CCC=CCCCCC)OC(=O)C(O)CCC=CCC=CCC=CCC=CCCCCC (stereo not shown) | 6.05
CCCCCC=CCC=CCC=CCCCC(O)C(=O)OCC(COC(=O)C(O)CCCC=CCC=CCC=CCCCCC)OC(=O)C(O)CCCC=CCC=CCC=CCCCCC (stereo not shown) | 4.41
CCCCCC=CCC=CCCCCCCC(O)C(=O)OCC(COC(=O)C(O)CCCCCCC=CCC=CCCCCC)OC(=O)C(O)CCCCCCC=CCC=CCCCCC (stereo not shown) | 5.70
CCC=CCC=CCC=CCC=CCC=CCC=CCC(O)C(=O)OCC(COC(=O)C(O)CC=CCC=CCC=CCC=CCC=CCC=CCC)OC(=O)C(O)CC=CCC=CCC=CCC=CCC=CCC=CCC (stereo not shown) | 6.00
CCCCCCCCC=CCCCCCCC(O)C(=O)OCC(COC(=O)C(O)CCCCCCC=CCCCCCCCC)OC(=O)C(O)CCCCCCC=CCCCCCCCC (stereo not shown) | 4.54
CCC=CCC=CCC=CCCCCCCC(O)C(=O)OCC(COC(=O)C(O)CCCCCCC=CCC=CCC=CCC)OC(=O)C(O)CCCCCCC=CCC=CCC=CCC (stereo not shown) | 4.37

As a next step, examine the compound that follows.
Please look at this compound and report its pIC50: CCC=CCC=CCC=CCC=CCC=CCCC(O)C(=O)OCC(COC(=O)C(O)CCC=CCC=CCC=CCC=CCC=CCC)OC(=O)C(O)CCC=CCC=CCC=CCC=CCC=CCC (stereo not shown)
5.40

###

Quick reference: Activity GBE1wt of the listed items.
System name: Glycogen Branching Enzyme 1 (GBE1) wild type (Homo sapiens, UniProt Q04446)
Sequence (Q04446 whole entry): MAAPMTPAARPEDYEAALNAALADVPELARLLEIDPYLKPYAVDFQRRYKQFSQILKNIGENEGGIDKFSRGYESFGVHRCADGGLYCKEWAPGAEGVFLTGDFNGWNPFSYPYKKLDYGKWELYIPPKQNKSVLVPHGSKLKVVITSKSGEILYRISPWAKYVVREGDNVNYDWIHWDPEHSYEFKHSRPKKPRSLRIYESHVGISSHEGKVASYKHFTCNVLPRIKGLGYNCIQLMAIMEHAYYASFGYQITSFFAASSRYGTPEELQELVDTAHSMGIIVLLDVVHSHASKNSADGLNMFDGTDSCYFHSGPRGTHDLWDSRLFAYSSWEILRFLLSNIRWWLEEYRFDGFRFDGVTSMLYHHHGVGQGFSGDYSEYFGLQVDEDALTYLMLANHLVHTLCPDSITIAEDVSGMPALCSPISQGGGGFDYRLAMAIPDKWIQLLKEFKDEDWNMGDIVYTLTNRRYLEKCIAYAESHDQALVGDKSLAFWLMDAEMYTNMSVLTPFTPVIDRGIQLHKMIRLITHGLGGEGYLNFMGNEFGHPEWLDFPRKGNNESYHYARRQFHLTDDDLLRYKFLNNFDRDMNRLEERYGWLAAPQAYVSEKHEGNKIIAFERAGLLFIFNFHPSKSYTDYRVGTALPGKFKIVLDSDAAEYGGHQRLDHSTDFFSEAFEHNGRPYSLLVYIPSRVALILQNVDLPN
Protocol details: activity of purified enzyme GBE1 in the presence of PC membranes
Assay type: biochemical
Experimental context: PC membranes with TGM 20 mol %; non-mutated enzyme = 100% (0.76 nmol/min · ng protein)
Text: It has been possible to observe that the molecules of the present invention are capable of regulating the activity of the Glycogen Branching Enzyme 1 (GBE1) and its joining to membranes (Table 9). Alterations in this enzyme give rise to a neurodegenerative process known as APBD (Kakhlon et al., 2013). It has been described that a modification of tyrosine in position 329 of this enzyme (Y329S) causes a reduction in the activity of GBE1. […]
Field: numeric (%). Do not append units.

CCC=CCC=CCC=CCCCCCCC(O)C(=O)OCC(COC(=O)C(O)CCCCCCC=CCC=CCC=CCC)OC(=O)C(O)CCCCCCC=CCC=CCC=CCC (stereo not drawn) | 88
CCCCCCCCC=CCCCCCCC(O)C(=O)OCC(COC(=O)C(O)CCCCCCC=CCCCCCCCC)OC(=O)C(O)CCCCCCC=CCCCCCCCC (stereo not drawn) | 89

Would you kindly look at the next entry?
Look up and report measured Activity GBE1wt for this entry: CCCCCC=CCC=CCC=CCCCC(O)C(=O)OCC(COC(=O)C(O)CCCC=CCC=CCC=CCCCCC)OC(=O)C(O)CCCC=CCC=CCC=CCCCCC (stereo not drawn)
69

###

Tested on: PC3 (prostate)
Protocol details: growth inhibition of human tumour cells, 72 h incubation
Assay type: cell-based
Experimental context: 72 hours of incubation
pIC50: −log10 of the molar value.
Could you label it Satisfied if measured pIC50 is 4 or higher, and Not satisfied otherwise?

As a guide, the following entries are already answered.
CCC=CCC=CCC=CCC=CCC=CCC=CCC(O)C(=O)OCC(COC(=O)C(O)CC=CCC=CCC=CCC=CCC=CCC=CCC)OC(=O)C(O)CC=CCC=CCC=CCC=CCC=CCC=CCC (stereo not shown) [TGM6] | Satisfied
CCC=CCC=CCC=CCC=CCC=CCCC(O)C(=O)OCC(COC(=O)C(O)CCC=CCC=CCC=CCC=CCC=CCC)OC(=O)C(O)CCC=CCC=CCC=CCC=CCC=CCC (stereo not shown) [TGM5] | Satisfied
CCCCCC=CCC=CCC=CCC=CCCC(O)C(=O)OCC(COC(=O)C(O)CCC=CCC=CCC=CCC=CCCCCC)OC(=O)C(O)CCC=CCC=CCC=CCC=CCCCCC (stereo not shown) [TGM4] | Satisfied
CCCCCC=CCC=CCCCCCCC(O)C(=O)OCC(COC(=O)C(O)CCCCCCC=CCC=CCCCCC)OC(=O)C(O)CCCCCCC=CCC=CCCCCC (stereo not shown) [TGM2] | Satisfied

Below: the item to evaluate.
hey, is pIC50 for this one >= 4? CCCCCCCCC=CCCCCCCC(O)C(=O)OCC(COC(=O)C(O)CCCCCCC=CCCCCCCCC)OC(=O)C(O)CCCCCCC=CCCCCCCCC (stereo not shown) [TGM1]
Not satisfied

###

Test system: MDA-MB231 (breast)
Protocol details: growth inhibition of human tumour cells, 72 h incubation
Format: cell-based
Experimental context: 72 hours of incubation
pIC50: −log10 of the molar value.
Outcome: yes (1) for pIC50 of at least 4; no (0) for anything lower.

CCCCCC=CCC=CCC=CCC=CCCC(O)C(=O)OCC(COC(=O)C(O)CCC=CCC=CCC=CCC=CCCCCC)OC(=O)C(O)CCC=CCC=CCC=CCC=CCCCCC (stereo not shown) | yes (1)
CCCCCC=CCC=CCCCCCCC(O)C(=O)OCC(COC(=O)C(O)CCCCCCC=CCC=CCCCCC)OC(=O)C(O)CCCCCCC=CCC=CCCCCC (stereo not shown) | yes (1)

Assess whether reported pIC50 for CCC=CCC=CCC=CCC=CCC=CCC=CCC(O)C(=O)OCC(COC(=O)C(O)CC=CCC=CCC=CCC=CCC=CCC=CCC)OC(=O)C(O)CC=CCC=CCC=CCC=CCC=CCC=CCC (stereo not shown) sits at 4 or higher.
yes (1)

Assess whether reported pIC50 for CCCCCC=CCC=CCC=CCCCC(O)C(=O)OCC(COC(=O)C(O)CCCC=CCC=CCC=CCCCCC)OC(=O)C(O)CCCC=CCC=CCC=CCCCCC (stereo not shown) sits at 4 or higher.
no (0)

Does the compound CCC=CCC=CCC=CCC=CCC=CCCC(O)C(=O)OCC(COC(=O)C(O)CCC=CCC=CCC=CCC=CCC=CCC)OC(=O)C(O)CCC=CCC=CCC=CCC=CCC=CCC (stereo not shown) have recorded pIC50 that is 4 or more?
yes (1)

###

Tested on: U87M (glioma)
Protocol details: growth inhibition of human tumour cells, 72 h incubation
Assay type: cell-based
Experimental context: Homo sapiens; 72 hours of incubation
Value kind: pIC50
# log scale: pIC50 equals minus log10 of the concentration in mol/L

Please look at this compound and report its pIC50: CCCCCC(O)C(=O)OCC(COC(=O)C(O)CCCCC)OC(=O)C(O)CCCCC (stereo not shown) [TGM0, 1,2,3-tri(2′-hydroxyheptanoyl)glycerol]
3.47

###

Measured Δ SP, change in systolic blood pressure, listed per entry.
Test system: systolic blood pressure
Protocol details: systolic blood pressure in spontaneously hypertensive rats
Assay type: in vivo
Experimental context: SHR rats, 14 days, 600 mg/kg every 12 hours, p.o.; basal 216 mmHg
Express the result in mmHg but write the number alone.

Below, each entry is followed by its recorded Δ SP, change in systolic blood pressure result.
CCCCCC=CCC=CCCCCCCC(O)C(=O)OCC(COC(=O)C(O)CCCCCCC=CCC=CCCCCC)OC(=O)C(O)CCCCCCC=CCC=CCCCCC (centres unmarked) [TGM2] | −41
CCC=CCC=CCC=CCCCCCCC(O)C(=O)OCC(COC(=O)C(O)CCCCCCC=CCC=CCC=CCC)OC(=O)C(O)CCCCCCC=CCC=CCC=CCC (centres unmarked) [TGM3A] | −28
CCCCCC=CCC=CCC=CCCCC(O)C(=O)OCC(COC(=O)C(O)CCCC=CCC=CCC=CCCCCC)OC(=O)C(O)CCCC=CCC=CCC=CCCCCC (centres unmarked) [TGM3G] | −21

Find the measured Δ SP, change in systolic blood pressure of CCCCCC(O)C(=O)OCC(COC(=O)C(O)CCCCC)OC(=O)C(O)CCCCC (centres unmarked) [TGM0, 1,2,3-tri(2′-hydroxyheptanoyl)glycerol] with systolic blood pressure as test system.
−8

Please report Δ SP, change in systolic blood pressure with systolic blood pressure for item CCC=CCC=CCC=CCC=CCC=CCCC(O)C(=O)OCC(COC(=O)C(O)CCC=CCC=CCC=CCC=CCC=CCC)OC(=O)C(O)CCC=CCC=CCC=CCC=CCC=CCC (centres unmarked) [TGM5] .
−40
